test system: Saccharomyces cerevisiae; assay: protein stability index of tFT-peptide fusion (C-terminal peptide) (PSI (0-1 scale)); higher = more stable (slower turnover); details: genetic background: das1 deletion; temperature: 30 C
For each entry below, report its protein stability index value.
Answer as a number with no unit attached.

Task: Any idea what protein stability index came out for PPVLAPHLCFPP on Saccharomyces cerevisiae?
Result: 0.657

Task: Now the sequence IVRDTECGIFYR
Result: 0.642

Task: VLLYRIAPRLLH ?
Result: 0.63

Task: Continue with RRRNQAAHLYSH
Result: 0.67

Task: Request: FSCLCLCVATSG
Result: 0.221

Task: For FPFFFLSILSAV then?
Result: 0.256

Task: Item: WFGCSTVWVRVQ
Result: 0.328

Task: Moving on to FTFLFPLRLLPL
Result: 0.377

Task: Next up: VSCFIVSFWVFL
Result: 0.355

Task: Repeat with CSLFYVFYRRLL
Result: 0.556

Task: Next sequence: LVRGGLTNLFLF
Result: 0.644

Task: Entry ATSGATILVLIA please
Result: 0.488

Task: And then VGFIVCFFFSFG , what is it?
Result: 0.325

Task: IFLCRNGAVFIC ?
Result: 0.733

Task: How about this sequence: LVGYSVFVLFFS
Result: 0.253

Task: Record: APLPPPPASVPP
Result: 0.672

Task: Now give it for NFFLLFFFFLSF too.
Result: 0.398

Task: Cool, now LCLRCQCIGTLS
Result: 0.45

Task: Item: IIAGVWFLEILG
Result: 0.333

Task: Another sequence to look at: WVVVLFAYRGLR
Result: 0.362

Task: Also need FGFSFLHLFIFF , thanks.
Result: 0.375

====

system: Saccharomyces cerevisiae; test: protein stability index of tFT-peptide fusion (C-terminal peptide) (PSI (0-1 scale)); higher = more stable (slower turnover); conditions: genetic background: wild type; temperature: 30 C
Record form. Attribute: protein stability index. Fill in for each entry.
// print number alone

Task: Consider the sequence FGGICFAVLLCR and give its measured protein stability index.
Result: 0.244

Task: Next sequence: VFFLFLVFLTVV
Result: 0.195

Task: Can you check SVLRCPVILLAY next?
Result: 0.078

Task: Query SYRFFLFLAVFV next
Result: 0.44

Task: Follow-up entry: PHRLSRFILRLL
Result: 0.119

Task: And YIILLSRKCAFC ?
Result: 0.396

Task: // query: VLVVVAFVALPR
Result: 0.282

Task: Ok, now LPHIFFCLFSLL
Result: 0.215

Task: Same again, this time with RRRNQAAHLYSH
Result: 0.159

Task: Moving on to the next sequence: PWGVGLACLFLL
Result: 0.096

Task: Can you check LCHILAIIRRGA next?
Result: 0.449

Task: FVSFFRWLLVSI ?
Result: 0.163

Task: Please do the same for PTAGFFGLLVLV as well.
Result: 0.286

Task: Can you handle VCALHSAPLLIF next?
Result: 0.362

Task: Same for PVHARYCSLKWA
Result: 0.279

Task: Next entry: TVWRRIRHACAH
Result: 0.226

Task: Another sequence to look at: ETCFSFVCSVQC
Result: 0.281

Task: Follow-up entry: LVFPRWACSLVF
Result: 0.288

Task: Try this sequence too: WFAHGLRHFRIL
Result: 0.299

Task: Same for SGRKNQRILGLY
Result: 0.221

Task: Likewise for SYVFCYICGVQS ?
Result: 0.372

Task: How about this sequence: SWVSVLSELLAC
Result: 0.238

Task: Now consider GLDLLTKFSKEC .
Result: 0.33

Task: Same thing, different sequence: YYVIFHLFSFLI
Result: 0.293

Task: Same read-out for FVFLVLGPYAMF ?
Result: 0.341

Task: Also LLGSRFVLIRSL ?
Result: 0.121

Task: Same read-out for SVSFFSLCTSSL ?
Result: 0.507

Task: Query FFGRWWWSFLLA next
Result: 0.261

Task: Also APPHPPPATFLS ?
Result: 0.357

Task: Same thing, different sequence: HRPRPLLKLLAS
Result: 0.0779

Task: Entry to check: GGRLGRAGGGGR
Result: 0.647

Task: How about SFYAGLVVGGVG ?
Result: 0.5

Task: Lookup GLCGVVVGCWVR
Result: 0.283

Task: Lookup SFSFCCLLASFV
Result: 0.461

Task: Cool, now DFRGVSVIRHQV
Result: 0.147

Task: And the next one, CPFLTLLISLDV ?
Result: 0.426

Task: Another: MLFALLTIVFLG
Result: 0.182

Task: Same question for FILCGFSVVLIG please.
Result: 0.184

Task: Now the same for RLCLLLCCRLWL
Result: 0.428

Task: // query: FLPHLMCVFSFC
Result: 0.334

Task: Please do the same for PAMPTEPKSSSG as well.
Result: 0.667

Task: Continue with SNFQLLPLFKNI
Result: 0.216

Task: Consider next the sequence TLLAFLIYLCFL in the same way.
Result: 0.365

Task: One more sequence: SMFFLFFFFFFF
Result: 0.328

Task: Likewise for LLSILSSLPLSR ?
Result: 0.589

Task: Input WYMYVRMASFLV
Result: 0.287

Task: Please answer likewise for RSFGGRPWVLFL
Result: 0.0971

Task: Lookup CTLVFLFFDLCS
Result: 0.304

Task: And the next one, ALWFVLISILCL ?
Result: 0.291

====

tested on: Saccharomyces cerevisiae; experiment: protein stability index of tFT-peptide fusion (C-terminal peptide) (PSI (0-1 scale)); higher = more stable (slower turnover); settings: genetic background: wild type; temperature: 37 C;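 also: PSI is a weighted mean of sequencing reads over stability bins, variants kept only with over 10 reads, mCherry proximal and sfGFP distal, peptide attached via GGGS linker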
Would you kindly list protein stability index for each of these sequences?

Task: Give the measured protein stability index of VSCFIVSFWVFL .
Result: 0.495

Task: # iterate: DFLSGRCIFFYV
Result: 0.512

Task: Now give it for FIPPRTYCLMIG too.
Result: 0.297

Task: Try the sequence GDSVRVIIFCLN
Result: 0.127

Task: Same read-out for AFLFLFSITCIV ?
Result: 0.313

Task: Same thing, different sequence: RVLSLLGCFVVF
Result: 0.558

Task: Record: VLWVYLFLFVIF
Result: 0.325

Task: Please answer likewise for PPPHPPPATFLS
Result: 0.596

Task: Next: GLFFLCLLSMCF
Result: 0.396

Task: Then GSDGVGGTVLYA ?
Result: 0.728

Task: Could you do the same for SWVSVLSELLAC , please?
Result: 0.287

Task: Now try LLVLRQYFFFFV .
Result: 0.401

Task: // same read-out, input: PHRLSRFILRLL
Result: 0.219

Task: Input LLVFSLLRPFLF
Result: 0.562

Task: Record: SNFQLLPLFKNI
Result: 0.546

Task: Also need ILCYVWLVFSGF , thanks.
Result: 0.369

Task: Record: SVFVVVVLVFWY
Result: 0.316

Task: Another sequence to look at: SVSFFSLCTSSL
Result: 0.511

Task: Queued: CMLGVVRVLVWF
Result: 0.17

Task: Also ASCFFLFVLRVF , if possible.
Result: 0.14

Task: Note, next up: CMLPWPILLCPF
Result: 0.456

Task: Request: VQTVRLVFQVLA
Result: 0.207

Task: Record: QIGSMLGVQGVG
Result: 0.545

Task: Also SLTHTPLGVTRT , if possible.
Result: 0.704

Task: Another sequence to check: VVVYWGSLKRVC
Result: 0.289

Task: Queued: QILVSYSFLYFF
Result: 0.539

Task: What do we get for PFFSSLKYRRDH ?
Result: 0.197

Task: Same read-out for WSFPFFLLPFLF ?
Result: 0.305

Task: Input VRNYWKYVVIFP
Result: 0.674

Task: Same read-out for ALLLLLRRFFLV ?
Result: 0.0903

Task: Would you mind doing LFHFPSWIFCLL as well?
Result: 0.308

Task: Subsequent entry: VLLYRIAPRLLH
Result: 0.408

Task: Similarly, EKTKRGLIQRVV ?
Result: 0.554

Task: Same read-out for RVFLVLFLILSG ?
Result: 0.425

Task: How about RHAHPLTAQLPL ?
Result: 0.717

Task: Can you handle SRRRRLVSKFLA next?
Result: 0.3

Task: // repeat for FFGRWWWSFLLA and report
Result: 0.443

Task: How about this sequence: LRMMLLVTIILE
Result: 0.198

Task: What about this sequence? FCSVFAHFLLCH
Result: 0.271

Task: Now try LVFPRWACSLVF .
Result: 0.406

Task: Field entry: NCMGLLMPLLIT
Result: 0.382

Task: What do you have for GTIFLIRVLLFG ?
Result: 0.357

Task: One more sequence: VLYSRFPPPLIA
Result: 0.538

Task: Query LVRGGLTNLFLF next
Result: 0.47

Task: Consider next the sequence FVGVLVLCVCRC in the same way.
Result: 0.21

Task: And then LCSVVIFCLVWG , what is it?
Result: 0.306

Task: Also need FPFVYRSVLLFF , thanks.
Result: 0.216

Task: What about this sequence? LPPFRFSLPFRR
Result: 0.71

Task: Try SPRGVVIAFLVC next.
Result: 0.109

Task: Now consider HRPRPLLKLLAS .
Result: 0.0284

Task: Follow-up entry: GVMICLDLLLSV
Result: 0.528

Task: Next sequence: SLSFLRPLLLIF
Result: 0.0953

Task: Further, for FLVVSSVGFPLL ?
Result: 0.714

Task: Same question, FTFLFPLRLLPL this time
Result: 0.442

Task: SYVRLDLFFFLG , same question.
Result: 0.536

Task: Also MLTYVVRSLVGY , if possible.
Result: 0.496

Task: One more sequence: SVECLCLFVACR
Result: 0.288

Task: // query: APLPPPPASVPP
Result: 0.691

Task: Can you handle LLFSVLLLGVGF next?
Result: 0.475
